target_entity: T1, ΔNp73β (Homo sapiens, UniProt O15350-9 1-450)
T1 sequence: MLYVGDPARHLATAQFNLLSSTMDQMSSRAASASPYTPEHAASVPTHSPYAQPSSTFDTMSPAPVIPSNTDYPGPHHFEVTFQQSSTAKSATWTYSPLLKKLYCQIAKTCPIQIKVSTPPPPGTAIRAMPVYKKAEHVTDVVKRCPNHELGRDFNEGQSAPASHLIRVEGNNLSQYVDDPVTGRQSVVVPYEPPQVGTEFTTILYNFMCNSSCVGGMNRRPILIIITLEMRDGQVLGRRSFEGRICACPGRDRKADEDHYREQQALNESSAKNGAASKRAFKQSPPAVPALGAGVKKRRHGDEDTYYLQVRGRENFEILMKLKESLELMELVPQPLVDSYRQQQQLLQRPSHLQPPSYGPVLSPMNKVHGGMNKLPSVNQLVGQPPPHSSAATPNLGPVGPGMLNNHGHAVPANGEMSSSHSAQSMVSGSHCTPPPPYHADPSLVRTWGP
assay_explanation: anisotropy competition; 25 mM NaPi, 225 mM NaCl, 10% v/v glycerol, 5 mM DTT, 0.2 mg/mL BSA, 22°C; 20 nM labelled DNA; pH not stated for the binding assay
experimental_conditions: protein: recombinant; tags: N-terminal 6xHis-lipoyl-TEV tag, cleaved; chain copies: 4
Listed next: entries and their corresponding binding signal.
quantity_name: binding signal

- G2C (dsDNA) DNA 1: CGCGCACATGTCCGGACATGTCCCGC DNA 2: GCGGGACATGTCCGGACATGTGCGCG: 0.44 ΔlogKd vs ref
- T6C (dsDNA) DNA 1: CGCGGACACGTCCGGACATGTCCCGC DNA 2: GCGGGACATGTCCGGACGTGTCCGCG: 0.62 ΔlogKd vs ref
- G7C (dsDNA) DNA 1: CGCGGACATCTCCGGACATGTCCCGC DNA 2: GCGGGACATGTCCGGAGATGTCCGCG: 1.8 ΔlogKd vs ref
- A5C (dsDNA) DNA 1: CGCGGACCTGTCCGGACATGTCCCGC DNA 2: GCGGGACATGTCCGGACAGGTCCGCG: 0.64 ΔlogKd vs ref
